List of koff values.
measurementTarget: T1, cynomolgus tissue factor (cynomolgus TF, Sino Bio #90885-C08H) (cynomolgus monkey, UniProt P13726 33-251 (human entry))
T1 construct: bought recombinant antigen; also called cyno TF
T1 chain: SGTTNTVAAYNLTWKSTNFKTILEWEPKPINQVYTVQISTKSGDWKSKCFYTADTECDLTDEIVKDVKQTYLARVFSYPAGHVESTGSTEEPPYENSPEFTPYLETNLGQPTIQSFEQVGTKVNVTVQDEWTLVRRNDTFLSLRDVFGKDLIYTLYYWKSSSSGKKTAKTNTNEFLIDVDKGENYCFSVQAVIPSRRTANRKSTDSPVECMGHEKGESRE
assayProcedure: Biacore SPR, single-point off-rate (100 nM antigen), antibody captured on anti-Fc
Method: Anti-Fc polyclonal antibodies were immobilized onto a CM4 chip (Cytiva #BR100534) using amine coupling chemistry (Human Antibody Capture Kit, Cytiva #BR100839). The immobilization steps were carried out at a flow rate of 25 μL/min in 1×HBS-EP+buffer (Cytiva #BR100669). The sensor surfaces were activated for 7 min with a mixture of N-hydroxysuccinimide (NHS, 0.05 M) and 1-ethyl-3-(3-dimethylaminopropyl)-carbodiimide (EDC, 0.2 M). […]
Answer in s⁻¹, number only, no unit symbol.

Sure, the documented koff for SRP2901-E03 (antibody, V domains shown, humanized rabbit antibody, variable regions fused to human IGHG1 and IGKC; also called 2842-B01 HC3/LC2) VH: EVQLVESGGGLVQPGGSLRLSCAASGFSISSYDMSWVRQAPGKGLEWIGIIGSNGRTYYPDSVKGRFTISRDNSKNTVTLQMNSLRAEDTAVYYCARGLYDGTGNIWGQGTLVTVSS VL: ELVMTQSPPTLSLSPGERVTLSCRASQSVYGNNWLSWYQQKPGQAPRLLIYGASKLATSIPARFSGSGSGTQFTLTISSLQPEDFAVYYCQGTYYSGDWYFAFGQGTKVEIK is 0.000782

Sure, the documented koff for 2842-B01 HC1/LC2 (antibody, V domains shown, humanized rabbit antibody, variable regions fused to human IGHG1 and IGKC) VH: QVQVVESGGGLVKPGGSLRLSCAASGFSISSYDMSWIRQAPGKGLEWIGIIGSNGRTYYADSVKGRFTISRNTNENTVYLQMNSLRAEDTAVYYCARGLYDGTGNIWGQGTLVTVSS VL: ELVMTQSPPTLSLSPGERVTLSCRASQSVYGNNWLSWYQQKPGQAPRLLIYGASKLATSIPARFSGSGSGTQFTLTISSLQPEDFAVYYCQGTYYSGDWYFAFGQGTKVEIK is 0.00142

Sure, the documented koff for SRP2901-B05 (antibody, V domains shown, humanized rabbit antibody, variable regions fused to human IGHG1 and IGKC; also called 2842-G04 HC2/LC2) VH: QVQVQESGPGLVKPPGTLSLTCAVSGFSLSYYGVSWVRQPPGKGLEWIGTIDSSGRTYYNPSLKSRVTISNDNAPNTVSLKLSSVTAADTAVYYCARDFYGWNSGALDIWGQGTLVTVSS VL: DLQLTQSPSTLSASVGDRVTITCRASQSVYSNKYLSWYQQKPGKAPKLLIYKASTLASGVPSRFSGSGSGTEFTLTISSLQPDDFATYYCAAAYSDDSDTAFGQGTKVEIK is 0.0017
